- subject_of_test: KAT7+JADE1+EAF6+ING5 4 protein complex (Homo sapiens (Human), UniProt O95251)
- procedure_text: KAT7 JADE1 assay (SAMDI-MS acetylation of H3 1-21 peptide)
- Assay type: biochemical
- stated_conditions: Morrison equation fit; replicate number in parentheses; read-out: KAT7 JADE1 Ki (nM) (replicate number)
Catalogue of Ki values

>  <molecule>
COc1cc2c(NS(=O)(=O)c3c(OC)cc(C4CCN(C)C4)cc3OC)noc2cc1Nc1cc(C2CC2)n[nH]1 (single isomer, unassigned) [Example 148]

>  <unit_label>
nM

>  <Ki>
3.6

$$$$
>  <molecule>
COc1cc2c(NS(=O)(=O)c3c(OC)cccc3OC)noc2cc1Nc1cc2n(n1)CC[C@@H]2C (single isomer, unassigned)

>  <unit_label>
nM

>  <Ki>
39.3

$$$$
>  <molecule>
COc1cc2c(NS(=O)(=O)c3c(OC)cc(C4CCCN(C)C4)cc3OC)noc2cc1Nc1cc(C2CC2)n[nH]1 (single isomer, unassigned) [Example 149]

>  <unit_label>
nM

>  <Ki>
5.3

$$$$
